target: oestrogen receptor (ER) (Homo sapiens, UniProt P03372); construct: These MVLN cells express, along with the functional oestrogen receptor (ER), a reporter construct; endogenous in cells; test: Anti-oestrogenic action in MVLN cells (inhibition of estradiol-induced luciferase); conditions: inhibition of estradiol-induced luciferase signal, value of Ex. 44 is a mean value, read-out: Antioestrogenic action in vitro: MVLN transactivation antagonism IC50
Sequence (P03372 whole entry): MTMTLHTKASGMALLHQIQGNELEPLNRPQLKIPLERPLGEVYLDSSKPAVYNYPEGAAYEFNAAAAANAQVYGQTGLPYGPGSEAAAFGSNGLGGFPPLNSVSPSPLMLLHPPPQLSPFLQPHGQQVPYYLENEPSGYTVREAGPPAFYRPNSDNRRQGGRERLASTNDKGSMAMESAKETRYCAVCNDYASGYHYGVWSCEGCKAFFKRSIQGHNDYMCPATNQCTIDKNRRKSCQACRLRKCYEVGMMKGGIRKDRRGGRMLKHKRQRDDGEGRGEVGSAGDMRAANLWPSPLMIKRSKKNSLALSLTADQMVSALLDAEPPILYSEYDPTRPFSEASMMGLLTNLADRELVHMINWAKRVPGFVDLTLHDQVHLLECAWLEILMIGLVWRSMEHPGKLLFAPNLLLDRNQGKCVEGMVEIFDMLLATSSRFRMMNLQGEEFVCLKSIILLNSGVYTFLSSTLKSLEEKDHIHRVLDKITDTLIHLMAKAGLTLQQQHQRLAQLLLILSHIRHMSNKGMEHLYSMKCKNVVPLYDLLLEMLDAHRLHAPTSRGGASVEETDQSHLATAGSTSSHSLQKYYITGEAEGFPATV
measured metric: pIC50
In textbook form, pIC50 equals minus log to base ten of the concentration in mol/L.

// below: answered molecules
The measured pIC50 that CN(CCCCCCC1=C(c2ccc(F)cc2)CCCc2cc(O)ccc21)CCCCS(=O)(=O)CCC(F)(C(F)(F)F)C(F)(F)F [Example 111] showed for oestrogen receptor (ER) (Homo sapiens, UniProt P03372) is 7.48

The measured pIC50 that CN(CCCCCCC1=C(c2ccc(F)cc2F)CCCc2cc(O)ccc21)CCCS(=O)(=O)CCC(F)(F)C(F)(F)F [Example 145] showed for oestrogen receptor (ER) (Homo sapiens, UniProt P03372) is 7.66

The measured pIC50 that CN(CCCCCCC1=C(c2ccc(F)cc2)CCCc2cc(O)ccc21)CCCS(=O)(=O)C1CCC(F)(F)CC1 [Example 121] showed for oestrogen receptor (ER) (Homo sapiens, UniProt P03372) is 7.39

The measured pIC50 that CC(C)(O)CN(CCCCCCC1=C(c2cc(F)cc(F)c2)CCCc2cc(O)ccc21)CCC[S+]([O-])CCCC(F)(F)C(F)(F)F (centres unmarked) [Example 12] showed for oestrogen receptor (ER) (Homo sapiens, UniProt P03372) is 7.82

The measured pIC50 that CN(CCCCCCC1=C(c2ccc(F)cc2)CCCc2c1ccc(O)c2F)CCC[S+]([O-])CCC(F)(F)F (centres unmarked) [Example 36] showed for oestrogen receptor (ER) (Homo sapiens, UniProt P03372) is 7.46

Others:
The measured pIC50 that CN(CCCCCCC1=C(c2ccc(F)cc2)CCCc2c1ccc(O)c2F)CCCCS(=O)(=O)CCCC(F)(F)C(F)(F)F [Example 39] showed for oestrogen receptor (ER) (Homo sapiens, UniProt P03372) is 8.10

The measured pIC50 that CN(CCCCCCC1=C(c2ccc(F)cc2)CCCc2c1ccc(O)c2F)CCCS(=O)(=O)CCC(F)(F)F [Example 37] showed for oestrogen receptor (ER) (Homo sapiens, UniProt P03372) is 7.28

The measured pIC50 that O=S(=O)(CCCN(CCO)CCCCCCC1=C(c2ccc(F)cc2)CCCc2cc(O)ccc21)CCCC(F)(F)C(F)(F)F [Example 54] showed for oestrogen receptor (ER) (Homo sapiens, UniProt P03372) is 7.57

The measured pIC50 that CN(CCCCCCC1=C(c2ccc(F)cc2)CCCc2cc(O)c(F)cc21)CCCS(=O)(=O)CCCCCC(F)(F)F [Example 140] showed for oestrogen receptor (ER) (Homo sapiens, UniProt P03372) is 8.40

The measured pIC50 that CN(CCCCCCC1=C(c2ccc(F)cc2)CCCc2c1ccc(O)c2F)CCCCS(=O)(=O)CCC(F)(F)F [Example 50] showed for oestrogen receptor (ER) (Homo sapiens, UniProt P03372) is 7.80

The measured pIC50 that CN(CCCCCCC1=C(c2ccccc2F)CCCc2cc(O)ccc21)CCCS(=O)(=O)CCCC(F)(F)C(F)(F)F [Example 126] showed for oestrogen receptor (ER) (Homo sapiens, UniProt P03372) is 8.05

The measured pIC50 that CN(CCCCCCC1=C(c2ccc(F)cc2)CCCc2cc(O)ccc21)CCCS(=O)(=O)CCCC(F)(F)C(F)(F)F [Example 115] showed for oestrogen receptor (ER) (Homo sapiens, UniProt P03372) is 7.89

The measured pIC50 that CC(C)(C)N(CCCCCCC1=C(c2ccc(F)cc2)CCCc2c1ccc(O)c2F)CCCS(=O)(=O)CCCC(F)(F)C(F)(F)F [Example 63] showed for oestrogen receptor (ER) (Homo sapiens, UniProt P03372) is 7.02

The measured pIC50 that O=S(=O)(CCCN(CCO)CCCCCCC1=C(c2ccc(F)cc2)CCCc2cc(O)c(F)cc21)CCCC(F)(F)C(F)(F)F [Example 100] showed for oestrogen receptor (ER) (Homo sapiens, UniProt P03372) is 8.05

Sourced from patent US20130252890A1
